Tested on: MCF7
Test: Antiproliferative activity assessed in the MCF-7 human mamma carcinoma using the BrdU
Format: functional, cell-based
Conditions: mcf7
assay metric: IC50 (nM)

[
  {
    "compound": "COc1cccc2c1C(=O)c1c(O)c3c(c(O)c1C2=O)C[C@@](O)(/C(CO)=N/NC(=O)CCCCCN1C(=O)C=CC1=O)C[C@]3(C)COC1C[C@H](N)[C@](C)(O)[C@H](C)O1.Cl (stereo in doubt; 3)",
    "assay metric": "IC50",
    "unit name": "nM",
    "numeric value": 1100
  }
]

====

pIC50 reference
Tested on: MCF7
Assay: Antiproliferative activity assessed in the MCF-7 human mamma carcinoma using the BrdU
Assay type: functional, cell-based
Details: Homo sapiens, MCF7
pIC50: −log10 of the molar value.

[
  {
    "molecule": "COc1cccc2c1C(=O)c1c(O)c3c(c(O)c1C2=O)C[C@@](O)(/C(CO)=N/NC(=O)CCCCCN1C(=O)C=CC1=O)C[C@]3(C)COC1C[C@H](N)[C@](C)(O)[C@H](C)O1 (stereo in doubt)",
    "tested target": "MCF7",
    "pIC50": 6.00
  },
  {
    "molecule": "COc1cccc2c1C(=O)c1c(O)c3c(c(O)c1C2=O)C[C@@](O)(/C(CO)=N/NC(=O)CCCCCN1C(=O)CCC1=O)C[C@]3(C)COC1C[C@H](N)[C@](C)(O)[C@H](C)O1 (stereo partly drawn)",
    "tested target": "MCF7",
    "pIC50": 5.96
  },
  {
    "molecule": "COc1cccc2c1C(=O)c1c(O)c3c(c(O)c1C2=O)C[C@@](O)(C(=O)CO)C[C@@H]3O[C@H]1C[C@H](N)[C@H](O)[C@H](C)O1",
    "tested target": "MCF7",
    "pIC50": 7.40
  }
]

====

Tested on: LXFL 529
Experiment: Antiproliferative activity assessed in the LXFL529 human lung carcinoma using the BrdU
Format: functional, cell-based
Conditions: lxfl 529

[
  {
    "compound": "COc1cccc2c1C(=O)c1c(O)c3c(c(O)c1C2=O)C[C@@](O)(/C(CO)=N/NC(=O)CCCCCN1C(=O)C=CC1=O)C[C@]3(C)COC1C[C@H](N)[C@](C)(O)[C@H](C)O1.Cl (stereo in doubt; 3)",
    "unit name": "nM",
    "IC50": 500
  }
]

====

Tested on: LXFL 529
Assay: Antiproliferative activity assessed in the LXFL529 human lung carcinoma using the BrdU
Type: functional, cell-based
Settings: Homo sapiens, LXFL 529
IC50 reference

[
  {
    "molecule": "COc1cccc2c1C(=O)c1c(O)c3c(c(O)c1C2=O)C[C@@](O)(/C(CO)=N/NC(=O)CCCCCN1C(=O)CCC1=O)C[C@]3(C)COC1C[C@H](N)[C@](C)(O)[C@H](C)O1 (stereo partly drawn)",
    "IC50": "500 nM"
  },
  {
    "molecule": "COc1cccc2c1C(=O)c1c(O)c3c(c(O)c1C2=O)C[C@@](O)(/C(CO)=N/NC(=O)CCCCCN1C(=O)C=CC1=O)C[C@]3(C)COC1C[C@H](N)[C@](C)(O)[C@H](C)O1 (stereo in doubt)",
    "IC50": "400 nM"
  },
  {
    "molecule": "COc1cccc2c1C(=O)c1c(O)c3c(c(O)c1C2=O)C[C@@](O)(C(=O)CO)C[C@@H]3O[C@H]1C[C@H](N)[C@H](O)[C@H](C)O1 [DOXORUBICIN]",
    "IC50": "40 nM"
  }
]

====

Test: Antiproliferative activity assessed in the RENCA murine renal cell carcinoma using the BrdU
Type: functional, cell-based, Mus musculus

[
  {
    "compound": "COc1cccc2c1C(=O)c1c(O)c3c(c(O)c1C2=O)C[C@@](O)(/C(CO)=N/NC(=O)CCCCCN1C(=O)C=CC1=O)C[C@]3(C)COC1C[C@H](N)[C@](C)(O)[C@H](C)O1.Cl (stereo in doubt; 3)",
    "IC50": "1000 nM"
  }
]

====

Biological target: Albumin (Homo sapiens, UniProt P02768)
Sequence (P02768 whole entry): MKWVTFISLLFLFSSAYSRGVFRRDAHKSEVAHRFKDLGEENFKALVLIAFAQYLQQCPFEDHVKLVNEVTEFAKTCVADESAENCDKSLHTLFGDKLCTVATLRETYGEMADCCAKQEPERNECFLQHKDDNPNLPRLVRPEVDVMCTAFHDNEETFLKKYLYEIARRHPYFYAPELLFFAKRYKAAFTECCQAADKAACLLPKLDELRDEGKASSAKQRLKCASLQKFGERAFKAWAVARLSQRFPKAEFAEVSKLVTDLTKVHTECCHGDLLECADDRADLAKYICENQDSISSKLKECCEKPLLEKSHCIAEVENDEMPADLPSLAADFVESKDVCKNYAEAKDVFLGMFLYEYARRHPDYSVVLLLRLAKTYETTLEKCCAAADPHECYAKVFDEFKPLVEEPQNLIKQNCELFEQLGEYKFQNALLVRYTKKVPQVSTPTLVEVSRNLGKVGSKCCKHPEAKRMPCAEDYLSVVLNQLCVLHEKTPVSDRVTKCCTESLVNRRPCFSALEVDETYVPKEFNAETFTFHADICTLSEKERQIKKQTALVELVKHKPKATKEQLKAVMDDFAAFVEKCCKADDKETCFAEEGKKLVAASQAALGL
Test: Second order rate constant after incubation with human serum albumin (HSA) at pH 7.4 in the absence of myristic acid

[
  {
    "compound": "COc1cccc2c1C(=O)c1c(O)c3c(c(O)c1C2=O)C[C@@](O)(/C(CO)=N/NC(=O)CCCCCCCN1C(=O)C=CC1=O)C[C@]3(C)COC1C[C@H](N)[C@](C)(O)[C@H](C)O1.Cl (some centres undefined)",
    "k2 / M⁻¹ s⁻¹": 10
  },
  {
    "compound": "COc1cccc2c1C(=O)c1c(O)c3c(c(O)c1C2=O)C[C@@](O)(/C(CO)=N/NC(=O)CCCCCN1C(=O)C=CC1=O)C[C@]3(C)COC1C[C@H](N)[C@](C)(O)[C@H](C)O1.Cl (stereo in doubt; 3)",
    "k2 / M⁻¹ s⁻¹": 17.33
  },
  {
    "compound": "COc1cccc2c1C(=O)c1c(O)c3c(c(O)c1C2=O)C[C@@](O)(/C(CO)=N/NC(=O)CCN1C(=O)C=CC1=O)C[C@]3(C)COC1C[C@H](N)[C@](C)(O)[C@H](C)O1.Cl (some centres undefined)",
    "k2 / M⁻¹ s⁻¹": 23.83
  },
  {
    "compound": "COc1cccc2c1C(=O)c1c(O)c3c(c(O)c1C2=O)C[C@@](O)(/C(CO)=N/NC(=O)CCCN1C(=O)C=CC1=O)C[C@]3(C)COC1C[C@H](N)[C@](C)(O)[C@H](C)O1.Cl (some centres undefined)",
    "k2 / M⁻¹ s⁻¹": 25.17
  }
]
